- test details: In vitro enzyme assay to detect hydrolysis of chlorophenol red-beta-D-[…] directly proportional to the number of Toxoplasma stably expressing beta-galactosidase
- Type: functional, organism-based, Toxoplasma gondii
- Design: scale not given: in the data most compounds retested in dose-response had high values
- applied conditions: 10 µM
Screen size: about 85,000 compounds; about 440 (0.52%) showed an effect of 50% or more. For the sample, strong results were picked, then their nearest neighbours and some compounds at random.
Outcome: yes for Percent Effect of at least 50%; no for anything lower.

In plain terms: is recorded Percent Effect at least 50% for `CC(C)C1=NOC2(CCN(Cc3c[nH]c4ccccc34)CC2)C1` ? no

Hi, just wondering whether `Cc1occc1-c1nc(-c2cccc(CN3CCOCC3)c2)no1` shows Percent Effect of 50% or higher. yes

* * *

Consider the following molecules and their measured Percent Effect readings.
- test details: In vitro enzyme assay to detect hydrolysis of chlorophenol red-beta-D-[…] directly proportional to the number of Toxoplasma stably expressing beta-galactosidase
- Format: functional, organism-based, Toxoplasma gondii
- Set-up: scale not given: in the data most compounds retested in dose-response had high values
- applied conditions: 10 µM
In all, about 85,000 compounds went through this assay and about 440 (0.52%) showed an effect of 50% or more. Shown is part of a subset that was picked to be rich in strong results.
Express it in %; write the number only.

Example entries and their recorded answers appear below.
Percent Effect recorded for this molecule, CCc1nnc(Nc2cc(C)nc(C3CCN(c4cnccn4)C3)n2)s1 (stereo not drawn) , is 9.302

Record `CCOCCNc1nc(-c2ccncc2)nc2c1CCNCC2` . Reported Percent Effect: -6.442

For reference, reported Percent Effect for `Cn1nc2c(cc1=O)CN(c1ncnc3ccsc13)CC2` stands at 82.27

// `O[C@@H]1CN(c2nc3ccccc3s2)CC[C@H]1c1ccc2c(c1)OCO2` : Percent Effect value = 53.23

Kindly note the recorded Percent Effect for CCc1nnc(Nc2cc(C)nc(C3CCN(c4ncccn4)C3)n2)s1 (stereo not drawn) , which is 8.527

Continuing:
Just so you know, measured Percent Effect for Oc1ccccc1CN1CCCCCC1c1cccs1 (stereo not drawn) came out at 10.91

For record `Cc1cs/c(=N/C(=O)c2csc(NCC(C)C)n2)[nH]1` the listed Percent Effect is 19.16

Percent Effect reported for this molecule `O=C(Nc1cccc(F)c1)NC1CCN(Cc2ccncc2)CC1` : 6.4

* * *

- test details: In vitro enzyme assay to detect hydrolysis of chlorophenol red-beta-D-[…] directly proportional to the number of Toxoplasma stably expressing beta-galactosidase
- Format: functional, organism-based, Toxoplasma gondii
- Set-up: scale not given: in the data most compounds retested in dose-response had high values
- applied conditions: 10 µM
Among all 85,000 compounds or so, about 440 (0.52%) showed an effect of 50% or more. What follows is part of a selection rich in strong results, with near analogues and random picks from the rest.
Returns yes (1) if the recorded Percent Effect is greater than or equal to 10%, and no (0) otherwise.

Look over these answered cases.
For this compound, is measured Percent Effect 10% or higher? `Cc1ccc(-c2cc(C(=O)NCCN3CCOCC3)n[nH]2)s1` yes (1)

Decide: is the reported value of Percent Effect for `O=C(CCNC(=O)c1ccoc1)NCc1ccccc1F` equal to or greater than 10%? no (0)

hey, is Percent Effect for this one >= 10%? Cc1nn(C)c2c(=O)n(C(C)C)c(NCC3CCCO3)nc12 (stereo unspecified) no (0)

Is it the case that `Cc1nn(C)c2c(NCc3cccnc3)nc(C(C)C)nc12` has Percent Effect reaching or exceeding 10%? yes (1)

Determine whether this compound has Percent Effect no lower than 10%: `Cc1nc(NCc2ccccn2)c2c(n1)c(C)nn2C` yes (1)

State whether the measured Percent Effect reaches 10%, counting equality as reaching it, for `CCn1c(NCc2ccccn2)nc2c(C)nn(C)c2c1=O` yes (1)

More entries:
Evaluate `CC(C)n1cc(S(=O)(=O)N2CCCCC2)cn1` : Percent Effect at minimum 10%? no (0)

Tell me whether Percent Effect is at least 10% here: `CSc1ccc(CN2C[C@@H]3CC[C@@](O)(c4ccc(C)cn4)[C@@H]3C2)cc1` yes (1)

Reference source for all entries: ChEMBL document CHEMBL3988442
